Target: ATP-dependent molecular chaperone HSP82 (Candida albicans (strain WO-1) (Yeast), UniProt C4YTQ8)
Sequence (C4YTQ8 whole entry): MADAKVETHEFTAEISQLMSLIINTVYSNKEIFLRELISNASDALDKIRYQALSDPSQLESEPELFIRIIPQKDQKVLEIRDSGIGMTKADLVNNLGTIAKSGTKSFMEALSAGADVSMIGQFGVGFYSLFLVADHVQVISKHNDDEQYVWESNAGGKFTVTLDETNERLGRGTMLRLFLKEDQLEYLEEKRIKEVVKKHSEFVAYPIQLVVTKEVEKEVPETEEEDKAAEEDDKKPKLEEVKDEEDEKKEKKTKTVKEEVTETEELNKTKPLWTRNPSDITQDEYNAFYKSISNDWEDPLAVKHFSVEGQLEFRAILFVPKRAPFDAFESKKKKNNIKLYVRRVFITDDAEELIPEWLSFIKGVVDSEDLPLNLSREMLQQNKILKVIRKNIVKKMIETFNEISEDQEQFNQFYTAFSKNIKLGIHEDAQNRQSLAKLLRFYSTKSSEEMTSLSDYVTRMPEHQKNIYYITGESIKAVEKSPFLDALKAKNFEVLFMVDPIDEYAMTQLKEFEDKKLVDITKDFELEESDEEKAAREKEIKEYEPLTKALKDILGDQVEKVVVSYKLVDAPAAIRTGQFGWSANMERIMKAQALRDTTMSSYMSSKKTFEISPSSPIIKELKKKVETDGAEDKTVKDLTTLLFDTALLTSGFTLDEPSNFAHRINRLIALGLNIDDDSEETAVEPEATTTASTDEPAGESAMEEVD
Assay: steroid-induced GRE reporter decrease in yeast – S. cerevisiae, luminescence, Hsp90 inhibitor project, dose response (AID 2400);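 further: beta-galactosidase luminescence from glucocorticoid response element reporter as proxy for Hsp90 function; inhibitor potency where signal loss means Hsp90 inhibition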
Type: functional, cell-based
Calls of active or inactive are those of the source.
READOUT KIND: EC50

Here is how some compounds turned out for EC50.
{"columns": ["COMPOUND", "OBSERVED RESULT"],
 "data": [
  ["O=C(NCc1ccco1)c1sc(=S)n2c1[nH]c(=O)c1ccccc12", "> 160 µM (inactive)"],
  ["c1ccc2c(c1)OCC(CNc1ncnc3sccc13)O2 (stereo not given)", "> 150 µM (inactive)"],
  ["Oc1c(CN2CCc3ccccc3C2)cc(Cl)c2cccnc12", "> 160 µM (inactive)"],
  ["O=C(c1cc2c(s1)CCCCC2)N1CCN(c2ncccn2)CC1", "23.9 µM (active)"]
]}

Pending compound:
Req: Name the reported EC50 value associated with the compound NC(=O)c1c(NC(=O)c2ccco2)sc2c1CCC2
Resp: > 150 µM (inactive)

---

Tested on: Streptococcus
Assay: GAS UMAA2166 growth inhibition – luminescence, BacTiterGlo, counter-screen for streptokinase expression inhibitor project, dose response (AID 1915);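 further: potency for reduction of bacterial viability or growth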
Format: functional, organism-based
Calls of active or inactive are those of the source.
READOUT KIND: EC50

Here is how some molecules turned out for EC50.
{"columns": ["SMILES REPR", "TEST SYSTEM", "OBSERVED RESULT"],
 "data": [
  ["COC(=O)c1ccc(C(=O)OC)c(NC(=O)CN(C)Cc2cccc(Cl)c2Cl)c1", "Streptococcus", "> 150 µM (not active)"],
  ["S=C(NCC1CCCCC1)Nc1ccc(Oc2ccccc2)cc1", "Streptococcus", "24.3 µM (active)"]
]}

Pending molecule:
Req: Name the reported EC50 value associated with the molecule Cc1cc(C)c2c(C(C)(C)C)nn(-c3ccccc3)c2n1
Resp: 15.7 µM (active)

---

Assay: Luminescence Cell-Based Dose Retest to Confirm Inhibitors of Cancer Stem Cells. [Related pubchem assays (depositor defined):AID2717, AID2721]
Format: functional
Details: Homo sapiens
Activity calls are given as the source filed them.
READOUT KIND: AC50

Dear colleague, could you please provide AC50 for the molecules listed below?
1. S=C(Nc1ccccc1)Nc1nc2ccccc2n1CCOc1ccc(Br)cc1
2. S=C(NCC1CCCCC1)Nc1ccc(Oc2ccccc2)cc1
3. COc1ccc(-c2sc3ccccc3c2-c2ccc(OCCN(C)C)cc2)cc1
4. Cn1nnnc1Sc1ncnc2scc(-c3cccc4c3sc3ccccc34)c12
5. C[C@H](CO)N1C[C@H](C)[C@@H](CN(C)S(=O)(=O)c2ccc(F)cc2)Oc2ccc(NC(=O)Nc3ccc(C(F)(F)F)cc3)cc2C1=O

Resp:
11.6 µM (active)
4.58 µM (active)
3.45 µM (active)
1.25 µM (active)
4.25 µM (active)

---

Target: Fatty acid synthase (Homo sapiens)
Sequence (P49327 whole entry): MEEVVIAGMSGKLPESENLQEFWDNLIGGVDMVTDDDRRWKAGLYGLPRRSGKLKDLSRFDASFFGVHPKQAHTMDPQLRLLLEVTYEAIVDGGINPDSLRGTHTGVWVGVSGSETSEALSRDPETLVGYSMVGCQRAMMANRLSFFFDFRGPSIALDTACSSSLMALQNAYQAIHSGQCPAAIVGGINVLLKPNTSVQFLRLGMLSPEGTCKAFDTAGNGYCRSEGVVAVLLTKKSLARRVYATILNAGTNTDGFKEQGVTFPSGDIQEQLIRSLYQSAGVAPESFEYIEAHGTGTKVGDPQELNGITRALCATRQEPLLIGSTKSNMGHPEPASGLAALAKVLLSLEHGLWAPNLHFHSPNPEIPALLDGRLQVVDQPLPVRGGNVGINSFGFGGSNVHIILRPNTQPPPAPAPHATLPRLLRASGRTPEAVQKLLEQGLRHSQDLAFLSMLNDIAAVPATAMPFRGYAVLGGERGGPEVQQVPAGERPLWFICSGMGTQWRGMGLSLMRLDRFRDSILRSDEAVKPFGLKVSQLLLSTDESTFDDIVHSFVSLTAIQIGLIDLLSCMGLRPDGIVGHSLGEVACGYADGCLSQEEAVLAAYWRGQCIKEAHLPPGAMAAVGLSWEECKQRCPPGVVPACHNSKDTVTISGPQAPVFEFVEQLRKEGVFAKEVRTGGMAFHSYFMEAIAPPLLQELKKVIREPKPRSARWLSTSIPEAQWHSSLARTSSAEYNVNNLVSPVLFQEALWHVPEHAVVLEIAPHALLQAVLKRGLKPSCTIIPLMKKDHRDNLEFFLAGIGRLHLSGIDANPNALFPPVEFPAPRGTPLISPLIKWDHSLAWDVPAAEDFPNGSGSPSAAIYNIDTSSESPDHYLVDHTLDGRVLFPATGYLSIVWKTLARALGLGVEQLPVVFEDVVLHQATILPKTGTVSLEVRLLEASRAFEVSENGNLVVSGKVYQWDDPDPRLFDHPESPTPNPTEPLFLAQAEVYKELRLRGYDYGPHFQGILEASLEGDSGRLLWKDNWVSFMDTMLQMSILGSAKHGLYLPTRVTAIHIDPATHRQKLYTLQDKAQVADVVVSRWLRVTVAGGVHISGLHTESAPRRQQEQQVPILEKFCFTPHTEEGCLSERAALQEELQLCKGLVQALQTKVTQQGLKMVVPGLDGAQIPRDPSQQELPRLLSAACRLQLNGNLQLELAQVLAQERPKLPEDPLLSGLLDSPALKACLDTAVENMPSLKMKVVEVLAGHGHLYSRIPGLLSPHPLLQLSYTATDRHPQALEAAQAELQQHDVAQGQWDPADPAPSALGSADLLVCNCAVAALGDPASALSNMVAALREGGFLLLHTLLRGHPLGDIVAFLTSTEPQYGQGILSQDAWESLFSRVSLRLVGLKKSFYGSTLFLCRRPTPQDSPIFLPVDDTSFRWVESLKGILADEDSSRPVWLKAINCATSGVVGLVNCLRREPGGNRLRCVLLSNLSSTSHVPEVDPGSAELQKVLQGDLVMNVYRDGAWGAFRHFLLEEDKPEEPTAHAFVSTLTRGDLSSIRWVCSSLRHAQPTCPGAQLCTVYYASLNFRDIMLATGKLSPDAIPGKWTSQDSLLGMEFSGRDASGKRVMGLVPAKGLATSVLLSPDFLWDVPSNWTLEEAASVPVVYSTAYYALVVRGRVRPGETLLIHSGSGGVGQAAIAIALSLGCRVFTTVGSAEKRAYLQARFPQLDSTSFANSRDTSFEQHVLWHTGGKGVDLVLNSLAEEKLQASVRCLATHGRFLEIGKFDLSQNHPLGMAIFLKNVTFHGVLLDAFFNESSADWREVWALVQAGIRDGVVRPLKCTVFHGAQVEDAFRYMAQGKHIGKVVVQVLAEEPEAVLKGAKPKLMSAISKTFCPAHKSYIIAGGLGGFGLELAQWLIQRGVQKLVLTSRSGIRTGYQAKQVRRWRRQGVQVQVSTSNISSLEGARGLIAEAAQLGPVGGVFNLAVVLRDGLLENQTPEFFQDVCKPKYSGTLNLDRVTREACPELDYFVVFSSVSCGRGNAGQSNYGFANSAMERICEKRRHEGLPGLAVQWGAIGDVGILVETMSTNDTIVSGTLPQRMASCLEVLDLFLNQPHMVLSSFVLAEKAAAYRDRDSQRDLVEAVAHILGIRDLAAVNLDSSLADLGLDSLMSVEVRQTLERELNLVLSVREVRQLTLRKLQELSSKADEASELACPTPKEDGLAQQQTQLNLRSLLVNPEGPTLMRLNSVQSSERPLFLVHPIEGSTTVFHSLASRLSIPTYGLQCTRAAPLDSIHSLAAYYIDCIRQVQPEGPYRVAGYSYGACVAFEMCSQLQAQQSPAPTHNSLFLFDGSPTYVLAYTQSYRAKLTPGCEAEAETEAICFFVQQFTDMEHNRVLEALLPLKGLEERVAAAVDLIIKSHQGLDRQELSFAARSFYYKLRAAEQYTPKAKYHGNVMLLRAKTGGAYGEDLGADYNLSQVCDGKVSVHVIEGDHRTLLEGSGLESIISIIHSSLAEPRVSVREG
Assay: inhibition of human FAS-TE enzyme activity – biochemical, endpoint fluorescence intensity, uHTS hits, dose response (AID 624327);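 further: fluorescence from hydrolysis of an O-methyl fluorescein acyl ester substrate by the enzyme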
Type: functional
Calls of active or inactive are those of the source.
READOUT KIND: IC50

Here is how some compounds turned out for IC50.
{"columns": ["COMPOUND", "OBSERVED RESULT"],
 "data": [
  ["Cc1cc2c(cc1C)C(c1cccc([N+](=O)[O-])c1)CC(=O)N2 (stereo not given)", "5.61 µM (active)"],
  ["O=C(O)c1cc(-c2ccc(/C=N/NC(=S)Nc3ccccc3)o2)ccc1Cl", "15.8 µM (active)"]
]}

Dear colleague, could you please provide IC50 for the compounds listed below?
1. Cc1ccc(C)c(S(=O)(=O)ON2C(=O)c3ccccc3C2=O)c1
2. NC(=NOC(=O)CC1CCCCC1)c1cccc([N+](=O)[O-])c1
3. CCOc1ccc(-c2ccc(NS(=O)(=O)c3cc([N+](=O)[O-])c(C)c([N+](=O)[O-])c3)cc2)nn1
4. Cc1ccc(S(=O)(=O)Nc2cccc(-c3ccc(N4CCCCCC4)nn3)c2)cc1
5. CC1CCCC(C)N1C(=O)COC(=O)c1cc([N+](=O)[O-])ccc1N1CCOCC1 (stereo not given)

Resp:
1. 1.72 µM (active)
2. 7.05 µM (active)
3. 0.872 µM (active)
4. 6.68 µM (active)
5. 7.31 µM (active)

---

Target: Protein RecA (Mycobacterium tuberculosis)
Experiment: Fluorescence Cell-Free Homogeneous Dose Retest to Identify Inhibitors of RecA-Intein Splicing Activity. [Related pubchem assays (depositor defined):AID2097, AID2223, AID489010, AID492950]
Format: functional
Calls of active or inactive are those of the source.
So I've got a bunch of compounds here, and I need their EC50 values.

Here is how some compounds turned out for EC50.
{"columns": ["COMPOUND", "TEST SYSTEM", "EC50"],
 "data": [
  ["O=C(NC1CCCC1)C(c1ccc(Cl)cc1)N(Cc1ccc(F)cc1)C(=O)CCl (stereo not given)", "Protein RecA (Mycobacterium tuberculosis)", "1.07 µM (active)"],
  ["COc1cc(C(c2c(C)[nH][nH]c2=O)c2c(C)[nH][nH]c2=O)cc([N+](=O)[O-])c1O", "Protein RecA (Mycobacterium tuberculosis)", "0.248 µM (active)"],
  ["CCOc1cc(C(c2c(C)[nH][nH]c2=O)c2c(C)[nH][nH]c2=O)ccc1O", "Protein RecA (Mycobacterium tuberculosis)", "0.24 µM (active)"],
  ["COc1cccc(C(=O)Nc2n[nH]c(SCc3ccc(Cl)cc3)n2)c1", "Protein RecA (Mycobacterium tuberculosis)", "1.29 µM (active)"],
  ["CC1=NN(c2ccc(Cl)cc2)C(=O)C1", "Protein RecA (Mycobacterium tuberculosis)", "2.67 µM (active)"],
  ["Cc1ccc(NC(=O)c2nc(S(=O)(=O)Cc3ccccc3)ncc2Cl)cc1", "Protein RecA (Mycobacterium tuberculosis)", "0.88 µM (active)"],
  ["Cc1cc(C)c(C(CC(=O)c2cccs2)C(C#N)C#N)c(C)c1 (stereo not given)", "Protein RecA (Mycobacterium tuberculosis)", "2.31 µM (active)"],
  ["O=C(O)CSc1cc(NS(=O)(=O)c2ccc(Br)cc2)c2ccccc2c1O", "Protein RecA (Mycobacterium tuberculosis)", "0.244 µM (active)"]
]}

Dear colleague, could you please provide EC50 for the compounds listed below?
1. CCc1ccc(C2C(C#N)=C(N)Oc3[nH]nc(CC(=O)OC)c32)cc1 (stereo not given)
2. O=C(/C=C/c1ccc(O)cc1)c1ccc(/N=C2\C(=O)c3ccccc3C(O)=C2N2CCCCC2)cc1
3. Cc1cccc(N2CC(C(=O)OCC(=O)c3ccc(OC(=O)c4cccs4)cc3)CC2=O)c1C (stereo not given)
4. COc1ccc(N2C(=O)CC(N(CCc3ccccc3)C(=O)/C=C/C(=O)O)C2=O)cc1 (stereo not given)

Resp:
1. 8.36 µM (active)
2. 0.707 µM (active)
3. 25 µM (active)
4. > 380 µM (inactive)

Dear colleague, could you please provide EC50 for the compounds listed below?
1. Cc1ccc(NC(=O)C2=C(c3ccccc3)S(=O)(=O)CCS2(=O)=O)cc1
2. CCOC(=O)c1nc(C)n(-c2ccc(Cl)cc2)n1
3. Cc1cc(C2C(C#N)=C(N)Oc3[nH]nc(C)c32)c(C)s1 (stereo not given)

Resp:
1. 1.01 µM (active)
2. > 380 µM (inactive)
3. 3.32 µM (active)

---

Molecular target: Serine/threonine-protein phosphatase (Candida dubliniensis (strain CD36 / CBS 7987 / NCPF 3949 / NRRLY-17841) (Yeast))
Sequence (B9W6M3 whole entry): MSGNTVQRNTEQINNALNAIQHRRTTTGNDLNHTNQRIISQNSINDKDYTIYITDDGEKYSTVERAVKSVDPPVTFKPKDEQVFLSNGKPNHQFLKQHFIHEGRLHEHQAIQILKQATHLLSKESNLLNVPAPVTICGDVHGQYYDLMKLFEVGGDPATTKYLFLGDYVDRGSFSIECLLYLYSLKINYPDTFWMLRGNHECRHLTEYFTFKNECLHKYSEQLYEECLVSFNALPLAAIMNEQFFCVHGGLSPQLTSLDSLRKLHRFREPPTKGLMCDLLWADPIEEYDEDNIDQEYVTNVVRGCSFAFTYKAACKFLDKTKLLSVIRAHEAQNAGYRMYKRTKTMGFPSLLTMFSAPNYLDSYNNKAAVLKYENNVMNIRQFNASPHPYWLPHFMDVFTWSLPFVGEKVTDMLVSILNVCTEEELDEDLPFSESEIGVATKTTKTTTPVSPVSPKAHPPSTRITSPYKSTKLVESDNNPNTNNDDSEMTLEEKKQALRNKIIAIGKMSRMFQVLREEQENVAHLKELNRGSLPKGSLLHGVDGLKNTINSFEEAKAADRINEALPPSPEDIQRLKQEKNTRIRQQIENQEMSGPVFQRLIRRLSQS
Experiment: blockers of CaCl2-induced CDRE-lacZ signaling – S. cerevisiae, luminescence, secondary, dose response (AID 2388);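 further: yeast reporter cells carrying a calcineurin-responsive lacZ construct stimulated with calcium chloride; luminescent beta-galactosidase reporter signal in whole cells rather than isolated phosphatase activity; potency for inhibition where a drop in reporter signal means calcineurin blockade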
Format: functional, cell-based
Active and inactive are the calls of the source.
So I've got a bunch of molecules here, and I need their EC50 values.

Here is how some molecules turned out for EC50.
{"columns": ["MOLECULE", "EC50"],
 "data": [
  ["c1ccc2c(c1)OCC(CNc1ncnc3sccc13)O2 (stereo not given)", "> 180 µM (inactive)"],
  ["O=C(c1cc2c(s1)CCCCC2)N1CCN(c2ncccn2)CC1", "> 180 µM (inactive)"],
  ["O=C(NCc1ccco1)c1sc(=S)n2c1[nH]c(=O)c1ccccc12", "> 180 µM (inactive)"],
  ["NC(=O)c1c(NC(=O)c2ccco2)sc2c1CCC2", "> 180 µM (inactive)"]
]}

Pending molecule:
Req: Name the reported EC50 value associated with the molecule Oc1c(CN2CCc3ccccc3C2)cc(Cl)c2cccnc12
Resp: > 180 µM (inactive)

---

A set of molecules tested on Cytochrome P450 3A4 (Homo sapiens), with measured AC50:

Here is how some molecules turned out for AC50.
{"columns": ["MOLECULE", "READOUT KIND", "OBSERVED RESULT"],
 "data": [
  ["CCN(CC)C(=O)N[C@H]1C[C@H]2c3cccc4[nH]cc(c34)C[C@@H]2N(C)C1", "AC50", "10 µM (inconclusive)"],
  ["COc1ccccc1CNc1ccnc(-c2ccccc2Cl)n1", "AC50", "2.51 µM (inconclusive)"],
  ["Cc1c(Cl)cnc(NC(=O)COC(=O)CCS(=O)(=O)c2ccccc2)c1Cl", "AC50", "15.8 µM (inconclusive)"],
  ["CCc1ccc(N(C(=O)c2ccoc2C)C(C(=O)NC2CCCC2)c2ccc(OC)cc2)cc1 (stereo not given)", "AC50", "1.26 µM (inconclusive)"],
  ["CN1CCN(c2nc(-c3ccccc3C(F)(F)F)nc3ccccc23)CC1", "AC50", "20 µM (inconclusive)"],
  ["NC(=O)Cn1c(=O)n(Cc2ccco2)c(=O)c2c3c(sc21)CCCCC3", "AC50", "25.1 µM (inconclusive)"],
  ["CN(C)Cc1c[nH]c2ccccc12", "AC50", "3.16 µM (inconclusive)"],
  ["COc1ccc(-c2nc3cnc(Nc4cccc(OC)c4)nc3n(Cc3cccs3)c2=O)cc1", "AC50", "6.31 µM (inconclusive)"]
]}

Dear colleague, could you please provide AC50 for the molecules listed below?
1. COCCn1c(=O)c(-c2ccc(F)cc2)nc2cnc(Oc3ccccc3)nc21
2. CC(=O)Nc1cc(S(=O)(=O)Nc2ccccc2)c(C)cc1C

Resp:
15.8 µM (inconclusive)
28.2 µM (inconclusive)
